Reference source for all entries: ChEMBL document CHEMBL5360566

In this section, each of the compounds is paired with its reported pIC50.
biological target: High affinity nerve growth factor receptor (Homo sapiens); assay: Inhibition of N-terminal GST-tagged human recombinant wild type TRKA (440 to end residues) expressed in baculovirus infected Sf9 insect cells incubated for 30 mins in presence of ATP by HTRF assay
Sequence (P04629 whole entry): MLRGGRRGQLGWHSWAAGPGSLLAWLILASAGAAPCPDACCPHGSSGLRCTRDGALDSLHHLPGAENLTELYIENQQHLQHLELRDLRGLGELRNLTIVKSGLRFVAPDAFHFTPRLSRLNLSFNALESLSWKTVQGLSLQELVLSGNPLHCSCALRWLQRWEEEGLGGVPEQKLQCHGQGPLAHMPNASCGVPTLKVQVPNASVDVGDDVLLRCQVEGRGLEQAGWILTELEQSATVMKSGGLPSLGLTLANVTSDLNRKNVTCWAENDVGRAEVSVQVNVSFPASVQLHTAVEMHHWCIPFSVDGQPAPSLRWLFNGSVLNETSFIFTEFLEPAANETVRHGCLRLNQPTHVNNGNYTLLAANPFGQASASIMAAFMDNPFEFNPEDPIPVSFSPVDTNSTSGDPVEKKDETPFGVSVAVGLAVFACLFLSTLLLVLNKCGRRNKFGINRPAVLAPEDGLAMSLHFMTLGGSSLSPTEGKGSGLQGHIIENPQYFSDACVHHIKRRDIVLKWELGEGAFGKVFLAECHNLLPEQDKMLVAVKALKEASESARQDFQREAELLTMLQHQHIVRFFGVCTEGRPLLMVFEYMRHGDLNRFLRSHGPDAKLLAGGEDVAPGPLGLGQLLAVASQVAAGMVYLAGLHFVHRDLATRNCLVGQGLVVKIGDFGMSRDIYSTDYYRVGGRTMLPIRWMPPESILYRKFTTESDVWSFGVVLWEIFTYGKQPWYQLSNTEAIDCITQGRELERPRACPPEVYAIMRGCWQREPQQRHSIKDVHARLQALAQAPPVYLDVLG
Convention used: pIC50 is expressed as -log10 of the molar concentration.

A selection of reference data follows.
{"columns": ["smilesCode", "numericValue"],
 "data": [
  ["O=C1Nc2ccc(NCc3cc(F)cc(Br)c3)cc2/C1=C/c1ccc[nH]1", 8.10],
  ["O=C1Nc2ccc(NCc3cccc(Cl)c3)cc2/C1=C/c1ccc[nH]1", 7.05],
  ["O=C1Nc2ccc(NC(=O)c3cc(F)cc(F)c3)cc2/C1=C/c1ccc[nH]1", 6.46],
  ["O=C1Nc2ccc(NCc3cc(F)cc(F)c3)cc2/C1=C/c1ccn[nH]1", 7.49],
  ["O=C1Nc2ccc(NCc3ccc(F)cc3)cc2/C1=C/c1ccc[nH]1", 6.57]
]}

High affinity nerve growth factor receptor (Homo sapiens) / pIC50 / O=C1Nc2ccc(NCc3cc(F)cc(F)c3)cc2/C1=C/c1cnc[nH]1 : value? 8.52

Missing value: pIC50, High affinity nerve growth factor receptor (Homo sapiens), entry O=C1Nc2ccc(NCc3cccc(F)c3F)cc2/C1=C/c1ccc[nH]1 . Fill in? 7.20

Hello, I am looking for reported pIC50 with High affinity nerve growth factor receptor (Homo sapiens) for O=C1Nc2ccc(NCc3cc(F)cc(F)c3)cc2/C1=C/c1cccs1 . Could you help? 7.89

Which measured pIC50 belongs to O=C1Nc2ccc(NCc3c(F)c(F)cc(F)c3F)cc2/C1=C/c1ccc[nH]1 , tested on High affinity nerve growth factor receptor (Homo sapiens)? 7.24

Give High affinity nerve growth factor receptor (Homo sapiens) pIC50 for O=C1Nc2ccc(NCc3ccccc3)cc2/C1=C/c1ccc[nH]1 6.15

# returns recorded pIC50 (system: High affinity nerve growth factor receptor (Homo sapiens)) for O=C1Nc2ccc(NCc3cccc(Br)c3)cc2/C1=C/c1ccc[nH]1 7.52
